biological target: CXCR3 (Homo sapiens); construct: host or cells: CHO-K1 (cAMP Hunter CHOK1 CXCR3 Gi cell line); assay: CXCR3 cAMP agonist assay (cAMP Hunter CHOK1 CXCR3 Gi cell line, forskolin-stimulated, HitHunter cAMP detection); type: cell-based; conditions: cAMP Hunter CHOK1 CXCR3 Gi cells, 20 μM forskolin, 30 minutes; read-out: Activity (CXCR3 cAMP agonist assay compound EC50)
Sequence (P49682 whole entry): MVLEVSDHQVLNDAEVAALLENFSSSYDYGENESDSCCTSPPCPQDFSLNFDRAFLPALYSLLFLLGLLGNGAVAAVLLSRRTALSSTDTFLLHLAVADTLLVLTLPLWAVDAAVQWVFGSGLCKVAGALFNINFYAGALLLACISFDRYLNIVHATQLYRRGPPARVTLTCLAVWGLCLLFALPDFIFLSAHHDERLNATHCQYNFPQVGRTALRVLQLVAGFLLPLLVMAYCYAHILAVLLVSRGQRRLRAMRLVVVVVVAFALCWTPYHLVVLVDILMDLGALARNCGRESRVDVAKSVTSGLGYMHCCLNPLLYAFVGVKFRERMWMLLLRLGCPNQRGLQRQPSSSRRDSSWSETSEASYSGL
outcomeMeasure: EC50

Solved entries (count: 5):
input: Look up EC50 with CXCR3 (Homo sapiens) for this compound: Cc1cc(NC(=O)[C@H](CCN)NC(=O)[C@@H]2Cc3ccccc3CN2C(=O)CCC(=O)N2CC(F)C2)ccc1Cl [Compound 12-19]
output: 250 to 500 nM

input: What reported EC50 corresponds to Cc1c(NC(=O)C2(NC(=O)[C@@H]3Cc4ccccc4CN3C(=O)CCC(=O)c3ccccc3)CCNCC2)ccc(Cl)c1Cl [Compound 11-2] on CXCR3 (Homo sapiens)?
output: 250 to 500 nM

input: Please state recorded EC50 (tested on CXCR3 (Homo sapiens)) of Cc1cc(NC(=O)[C@H](CCN)NC(=O)[C@@H]2Cc3ccccc3CN2C(=O)CCC(=O)N2CC3CCC2CN3C)ccc1Cl (stereo partly drawn) [Compound 12-146]
output: > 500 nM

input: Find EC50 (CXCR3 (Homo sapiens)) for the entry Cc1cc(NC(=O)[C@H](CCN)NC(=O)[C@@H]2Cc3ccccc3CN2C(=O)CCC(=O)N2CCCC(C)(C)C2)cc(C)c1Cl [Compound 10-9]
output: < 50 nM

input: Lab request: please report EC50 under test system CXCR3 (Homo sapiens) for NCC[C@H](NC(=O)[C@@H]1Cc2ccccc2CN1C(=O)CCC(=O)N1CCC2CCCCC2C1)C(=O)Nc1ccc2c(c1)CCC2 (stereo partly drawn) [Compound 10-5]
output: < 50 nM

Then this compound:
input: State its EC50 on CXCR3 (Homo sapiens): CC[C@@H]1CCCCN1C(=O)CCC(=O)N1Cc2ccccc2C[C@H]1C(=O)N[C@@H](CCN)C(=O)Nc1ccc(Cl)c(C)c1 [Compound 12-112]
output: < 50 nM

###

Measured pEC50 of individual entries
Target: CXCR3 (Homo sapiens)
Construct: host or cells: CHO-K1 (cAMP Hunter CHOK1 CXCR3 Gi cell line)
Assay: CXCR3 cAMP agonist assay (cAMP Hunter CHOK1 CXCR3 Gi cell line, forskolin-stimulated, HitHunter cAMP detection)
Type: cell-based
Conditions: cAMP Hunter CHOK1 CXCR3 Gi cells, 20 μM forskolin, 30 minutes; read-out: Activity (CXCR3 cAMP agonist assay compound EC50)
Procedure: The cAMP Hunter™ CHOK1 CXCR3 Gi cell line was purchased from DiscoveRx. Cells were seeded into a 96-well white assay plate at 50,000 cells/well/94 μl assay buffer (Hank's Buffered Saline Solution, 10 mM HEPES, 0.1% fatty acid-free BSA, pH 7.4) and immediately assayed in suspension. […] Direct detection of cAMP was carried out using the DiscoveRx HitHunter cAMP kit according to manufacturer's instructions, and luminescence was read using a SpectraMax M5 plate reader.
pEC50: −log10 of the molar value.

input: Item under review: "COc1c(NC(=O)[C@H](CCN)NC(=O)[C@@H]2Cc3ccccc3CN2C(=O)CCC(=O)c2ccccc2)ccc(C)c1C" . Reported pEC50?
output: < 6.30

input: Requested field: pEC50. Item: "Cc1cc(NC(=O)[C@H](CCN)NC(=O)[C@@H]2Cc3ccccc3CN2C(=O)CCC(=O)N2CCc3ccccc3C2)ccc1Cl"
output: > 7.30

input: Entry under review: "COc1cc(C(F)(F)F)c(C)cc1NC(=O)[C@H](CCN)NC(=O)[C@@H]1Cc2ccccc2CN1C(=O)CCC(=O)c1ccccc1" . Reported pEC50?
output: 6.60 to 7.30

input: GET /values?readout=pEC50&item= "NCC[C@H](NC(=O)[C@@H]1Cc2ccccc2CN1C(=O)CCC(=O)c1ccccc1)C(=O)Nc1ccc(Cl)c(C(F)(F)F)c1"
output: 6.60 to 7.30

input: What value of measured pEC50 is listed for "Cc1cc(NC(=O)[C@H](CCN)NC(=O)[C@@H]2Cc3ccccc3CN2C(=O)CCC(=O)NCCOC(C)C)ccc1Cl" ?
output: < 6.30

New cases:
input: State the recorded pEC50 for this entry: "CC1(C)Cc2ccc(NC(=O)[C@H](CCN)NC(=O)[C@@H]3Cc4ccccc4CN3C(=O)CCC(=O)c3ccccc3)cc2C1"
output: 6.60 to 7.30

input: Item "Cc1c(Cl)ccc(NC(=O)[C@H](CCN)NC(=O)[C@@H]2Cc3ccccc3CN2C(=O)CCC(=O)N2CCCC3(CCC3)C2)c1Cl" has what recorded pEC50?
output: > 7.30

input: Any idea what its pEC50 is? The compound is "NCC[C@H](NC(=O)[C@@H]1Cc2ccccc2CN1C(=O)CCC(=O)c1ccccc1)C(=O)Nc1ccc(F)c(C(F)(F)F)c1"
output: > 7.30

input: If you can, please state the reported pEC50 value of "NCC[C@H](NC(=O)[C@@H]1Cc2ccccc2CN1C(=O)CCC(=O)c1ccccc1)C(=O)Nc1cc(F)ccc1Cl" .
output: 6.30 to 6.60

input: What pEC50 value was documented for this compound, "CCc1c(NC(=O)[C@H](CCN)NC(=O)[C@@H]2Cc3ccccc3CN2C(=O)CCC(=O)c2ccccc2)ccc(Cl)c1C" ?
output: < 6.30

input: Which pEC50 value belongs to CC(C)CC1CCCCN1C(=O)CCC(=O)N1Cc2ccccc2C[C@H]1C(=O)N[C@@H](CCN)C(=O)Nc1ccc(Cl)c(Cl)c1F (some centres unmarked) ?
output: > 7.30
